Where do the numbers come from? From paper PMC5515982.

// reported Slope, concentration in white hair versus pigmented hair for each item listed
# TEST METHOD NOTES: Influence of hair pigmentation: concentration in white hair versus pigmented hair
# Type: in vivo, rat
# EXPERIMENTAL PARAMETERS: slope close to 1 = poor influence of pigmentation
Lab note: jot the number down without any unit.

Quick one: Slope, concentration in white hair versus pigmented hair of N#Cc1nn(-c2c(Cl)cc(C(F)(F)F)cc2Cl)c(N)c1[S+]([O-])C(F)(F)F (stereo not drawn) [Fipronil] ? 1.017

---

// reported Slope (linear fit), concentration in urine versus level of exposure for each item listed
# TEST METHOD NOTES: Concentration of pesticides and metabolites in 24-h urine of rats after 90-day gavage exposure to a pesticide mixture
# Format: in vivo, rat
# EXPERIMENTAL PARAMETERS: urine; exposure expressed as mg/kg per day, concentration as ng/mL; detected values only

>  <ENTRY SMILES>
Cl[C@H]1[C@H](Cl)[C@@H](Cl)[C@@H](Cl)[C@H](Cl)[C@H]1Cl

>  <RESULT>
5 715

$$$$
>  <ENTRY SMILES>
Oc1c(Cl)c(Cl)c(Cl)c(Cl)c1Cl

>  <RESULT>
82 841

$$$$
>  <ENTRY SMILES>
ClC1=C(Cl)[C@]2(Cl)[C@@H]3[C@@H]4C[C@@H]([C@H]5O[C@@H]45)[C@@H]3[C@@]1(Cl)C2(Cl)Cl

>  <RESULT>
2 069

$$$$

Consider now this further compound.
Quick one: Slope (linear fit), concentration in urine versus level of exposure of `N#Cc1nn(-c2c(Cl)cc(C(F)(F)F)cc2Cl)c(N)c1S(=O)(=O)C(F)(F)F` ? 10 650
